- RUN DESCRIPTION: Volume of distribution at steady state in rat at 1 mg/kg, iv and 2 mg/kg, po
- Assay type: ADME, organism-based
- CONDITIONS: in vivo, read-out: Vdss
QUANTITY NAME: Vd (L/kg)
Give just the numeric value; L/kg need not be written.

query: Tell me Vd reported for C[C@@H](O[C@H]1CC[C@@H]2CN(C3=CC(=O)CC3)C[C@H]2[C@@H]1c1ccc(F)cc1)c1cc(C(F)(F)F)cc(C(F)(F)F)c1 [SERLOPITANT]
result: 1.5

====

QUANTITY NAME: IC50 (µM)
Give just the numeric value; µM need not be written.

query: Fill in: IC50 on Cytochrome P450 3A4 (Homo sapiens, UniProt P08684), entry `C[C@@H](O[C@H]1CC[C@@H]2CN(C3=CC(=O)CC3)C[C@H]2[C@@H]1c1ccc(F)cc1)c1cc(C(F)(F)F)cc(C(F)(F)F)c1`
Sequence (P08684 whole entry): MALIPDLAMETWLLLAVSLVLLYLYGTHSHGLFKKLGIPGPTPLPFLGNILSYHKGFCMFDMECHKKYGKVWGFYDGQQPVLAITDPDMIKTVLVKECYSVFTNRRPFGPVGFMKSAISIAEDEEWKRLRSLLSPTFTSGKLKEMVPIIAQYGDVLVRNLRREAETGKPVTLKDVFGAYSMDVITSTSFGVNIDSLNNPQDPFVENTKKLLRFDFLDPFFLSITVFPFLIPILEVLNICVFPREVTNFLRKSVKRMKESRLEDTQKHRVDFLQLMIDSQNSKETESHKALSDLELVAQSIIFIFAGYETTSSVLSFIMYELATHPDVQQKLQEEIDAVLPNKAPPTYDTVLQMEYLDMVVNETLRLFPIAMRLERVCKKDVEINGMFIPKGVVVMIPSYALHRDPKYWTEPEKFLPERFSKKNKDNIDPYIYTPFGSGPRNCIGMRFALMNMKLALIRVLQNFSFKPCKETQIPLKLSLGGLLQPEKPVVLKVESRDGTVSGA
result: 39
